# maps each entry to its EC50 hGLP1 R (cAMP, HEK293 cells expressing the GLP-1R)
- measurement_target: human GLP-1 receptor (human, UniProt P43220 24-463)
- protocol_notes: cell-based or functional assay
Starred links: 1 amine or outer side, 2 acyl side, 3 side chain; linkers in the order of their positions; H or OH if unused. Non-standard residues stand in square brackets, D forms with d. Groups on a side chain read outwards from the residue. *: point of attachment. C20 diacid = O=C(O)CCCCCCCCCCCCCCCCCCC(=O)*; γGlu = O=C(O)[C@H](CCC(=O)[*:2])N[*:1]; Aib = CC(C)(N)C(=O)O

binder	reported
YAEGTFISDYSIELDKKAAQAFIEWLLAQGPSSGAPPPS (Aib at 2; Lys 17 side chain acylated: K((19-Carboxy-nonadecanoyl)-[(Piperazine-1-yl)-acetyl]-Peg3-Peg3); C-terminal amide (-NH2)) [Compound 41]	> 10 nM
H-Y[Aib]EGTFISDYSIELDKK([Peg3-Peg3-γGlu-C20 diacid])AQRAFIEWLLAQGPSSGAPPPS-NH2 [Compound 18]	> 3 nM
H-Y[Aib]EGTFISDYSIELDKK([Peg3-Peg3-γGlu-C20 diacid])AQRAFVEWLLAQGPSSGAPPPS-NH2 [Compound 17]	> 3 nM
H-Y[Aib]EGTFISDYSIELDKK([Peg3-Peg3-γGlu-C20 diacid])AAQDFVNWLLAAGPSSGAPPPS-NH2 [Compound 30]	> 10 nM

Inquiry: Give its EC50 hGLP1 R (cAMP, HEK293 cells expressing the GLP-1R) value. Item: H-Y[Aib]EGTFISDYSIELDKK([Peg3-Peg3-γGlu-C20 diacid])AAQAFIEWLLAQGPSSGAPPPS-NH2 [Compound 40]
Reply text: > 10 nM

Value source: patent US10253078
